src = ChEMBL document CHEMBL2390838

Assay name: Tmax in BALB/c mouse at 1 mg/kg, iv
Type: ADME, organism-based
Parameters: dose 1 mg/kg, route intravenous
Study conditions: in vivo
Parameter: Tmax (min)

Smiles repr	Recorded number
O=C(NCc1cccnc1)Nc1ccc(S(=O)(=O)N2CC3CCC(C2)O3)cc1	4.8

* * *

Assay name: AUC(infinity) in BALB/c mouse at 5 mg/kg, po
Assay type: ADME, organism-based
Design: time infinity, dose 5 mg/kg, route oral
Study conditions: plasma

Smiles repr	AUC(0-inf) / µM·h
O=C(NCc1cccnc1)Nc1ccc(S(=O)(=O)N2CC3CCC(C2)O3)cc1	1.4

* * *

Assay name: AUC(infinity) in BALB/c mouse at 1 mg/kg, iv
Type: ADME, organism-based
Parameters: time infinity, dose 1 mg/kg, route intravenous
Study conditions: plasma

Smiles repr	AUC(0-inf), µM·h
O=C(NCc1cccnc1)Nc1ccc(S(=O)(=O)N2CC3CCC(C2)O3)cc1	0.92
